experiment: soluble on expression in E. coli; label from the status in PepcDB or PDB records
REPORTED_PROPERTY: soluble on expression in E. coli

MGSSHHHHHHSSGLVPRGSHMASMDGKQGGMDGSKPAGPRDFPGIRLLSNPLMGDAVSDWSPMHEAAIHGHQLSLRNLISQGWAVNIITADHVSPLHEACLGGHLSCVKILLKHGAQVNGVTADWHTPLFNACVSGSWDCVNLLLQHGASVQPESDLASPIHEAARRGHVECVNSLIAYGGNIDHKISHLGTPLYLACENQQRACVKKLLESGADVNQGKGQDSPLHAVVRTASEELACLLMDFGADTQAKNAEGKRPVELVPPESPLAQLFLEREGASLPKPKP = soluble
GLFQFLRIVMRPSDQLLGLDEKGTIRTIDETGKASPIPGMVIYRFNSPLTYFNAPYFKRRLLEHAEQNKDVSCVVVDAVSSFTHLDLSVMATLADIHEVLKKRGIRLVLAGRKRRLRQWCELTGISTSEGGILLRADMYLAIKLSGSYLSAVGEGIVPTVQKEPDLEQPPKPIPEVA = not soluble
MPSYKLTYFNARGYGEAARILFHLADVPFEDFRMTHGDGTWEKLKEKTPLGQVPVLSVDGFEIPQSAAIIRYLANKFGYAGKTPEEQAWADAIVDQFKDFMGSFREVGKAHAAGKPAEEIAKIMQSDVVPARDAFFVIINGILEKSKSGFLVGDGLTFADIVVVECITTLDKNQLFTPAGEPKLVALREKVYAIPAIKKWVEIRPDTQY = not soluble
MVTAEIRLYITEGEVEDYRVFLERLEQSGLEWRPATPEDADAVIVLAGLWGTRRDEILGAVDLARKSSKPIITVRPYGLENVPPELEAVSSEVVGWNPHCIRDALEDALDVI = not soluble
MGKLMEIIIISGRSGAGKSVALRALEDAGYYCVDNIPLDLLPQLTDILSQSQSSVAISLDIRNIPNSAHSLKQTLSTLQKHHQIKIIFLEADRATLIRRYSDSRRLHPLSLKDLSLEAAIDEEYRYLEPLIQHANLILDTTHLSTHSLAERLREFLRGNSEKELKIIVESFGFKYGIPLDADYVFDVRFLPNPHWDPTLRPMTGLEAPVAEFLNSHTEVNEFIYLTRHYIDTWLPMLEKNNRSYLTIAIGCTGGKHRSVYIAQQLGEYFQAKGKTVKIQHKSLERNKKI = not soluble
GMSQTTVVNGVNVDQLMATIEQIKAKPEIAQFKFRATNQWMGGTHNQATIKDFYGACAEDDTRKPMVFDLDEPPVLLGENRGANPVEYLLVALSGCLTTSLVAHAAARGIALRGVKSRYEGDIDLRGFLGLSEEVPVGYREIRVFFSIDADLTDGQKEELIRMAQKYSPVYNTVAKPVPVAVLLDRG = soluble
MEEKKALRNRIKKLLRSQPEQQRKEGSQRVADILFSLPEWNEAHAIGITISLPHEVQTELIISRGWEEGKQIAVPRVKKGTTQMTFYEIHSFSVLEDTFFGLREPKPSECRQIDGQELDLLLVPGVAFDQKGNRLGYGGGYYDRFLHSYKGKTIALAYSQQLVESVPTDERDERVQMIVTERGVYRLEHHHHHH = soluble
MDGEEKTYGGCEGPDAMYVKLISSDGHEFIVKREHALTSGTIKAMLSGPGQFAENETNEVNFREIPSHVLSKVCMYFTYKVRYTNSSTEIPEFPIAPEIALELLMAANFLDC = soluble
MKDAKGIDKQWVILNELASKISKVRPLPEDVYSKLRIANNIITYYLLDEHADFEVLRDAEKEISKIQVILFGLADQDVSKEYLIKMGQALRNEIDLEFPLKQTAFNTEVKRKKGSETIRIKMPVEVQIEVLGELSEHNGVIFELSQDDEQKILVEGVKERITSALKDFSVIWKFQDNLEHHHHHH = not soluble
MLTPMFCLAHISDMHLSPLPKPSFFELFGKRLTGYLNWQKKRKGQMATNTLETLIEALKKKNPDHLVISGDLVNLALDKEFEQARNWLLNQGQPQNISLTFGNHDAYVRGAFQKACTLFQPWITGDFPQKNAPPFPYIRIRKNVAIIGASSAIATPPFQASGYFGKMQAQALSQLLNEAARRNLFRVIMIHHPPFHHATSWHKKLWGIERFLEVIKHHGCELILHGHTHLPTLNIIKGKMGKIPIVGVASAAQAFGDTPPPAGFNFFSIEQFNQQWHCQLQRYSLINQNNEVACTETIDLLEHHHHHH = not soluble

[ask] Tell me the measured soluble on expression in E. coli of SLGSVLVDLQIATENIEGLPTEEQIVQWATGAVQPEGNEVEMTVRIVDEAESHELNLTYRGKDRPTNVLSFPFECPDEVELPLLGDLVICRQVVEREASEQEKPLMAHWAHMVVHGSLHLLGYDHIEDDEAEEMESLETQIMQGLGFDDPYLAEK , please.
[reply] soluble

[ask] Using the record for MITMIYKGNRAAWAYIVARTKVMKSRLLKPEDFRKLLNMEFDEIVRYIGETEYKKEIDELGYKFTGPRLLDHALYANLARTYRKLIEVSFGASKFLIMKYLEKWDVWNIINIIRGKMANVQPEVVDDILVPAGERDMDFWKTLLVKDIEEIVKSFEGTPYYEPLSKIGSEDMSKIEDGLYKVYYRELLKLNPSDFAMKLFLDFIKMEIDIRNVKTLLRLKAEDATPDEIMECTIPGGYELTEEELRKLAAMPIDEMIKALEGYWFWNDVQIEGKEVAAVEIEFDKVWIKTISKRASNYPLSILPVLQYIVLKKVEVDNLRVLGWGKYYGLPSEEIERQMVIL , report its soluble on expression in E. coli.
[reply] not soluble

[ask] Report soluble on expression in E. coli for MGSDKIHHHHHHMNLLSLYHFFAGKASDKQKEAIKRWAESSPDNYETLCREKKIFDAGILLVDKKELFQKENAPLLYKLINYTVKIAAVVLLVVVSVTIYKYQELVKKSEVLQTILVPAGQRINIILPDSTFVCLNSNTKFSYPSVFATNNRKVKLDGEAYFEVSANKNKPFYVHTSKGEIKVLGTHFNLEAYSNADVFKTSLFEGKVRVRVKGNNIYLKPDQMVCYHKNGKIHLETIHDYDQFRWREGLICIKSAKLKDIMKTFTKYFGDSIVIQNKEVEHYKYTGKFRQSRGVINALRLLQKDAPFTIEQDEDKQIIYIK please.
[reply] not soluble
